These data points were gathered from paper PMC9092470.

Molecular target: T1, p300 CH1 domain (residues 330–420) (UniProt Q09472 330-420)
T1 construct: p300 CH1 domain, residues 330–420; The cleavage of GST is said for the anisotropy control; also called p300 with the GST tag cleaved; source: recombinantly expressed as a fusion protein with GST, GST tag cleaved
T1 sequence (Q09472 330-420): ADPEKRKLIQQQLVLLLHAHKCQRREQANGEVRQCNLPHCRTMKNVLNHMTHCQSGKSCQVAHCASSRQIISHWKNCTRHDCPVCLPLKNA
Assay: ITC; peptide in the syringe, p300 in the cell (Fig. 4: 5 μM protein, 60 μM ligand); 40 mM sodium phosphate, pH 7.5, 100 mM NaCl, 1 mM DTT, 35 °C; single-site model, fixed 1:1 stoichiometry
Conditions: both partners purified
Measured dH by item
Please don't drop the unit; write it after the number.

Here's what some known entries look like.
CITIF, HIF-1α-CITED2 hybrid sequence, chemically synthesized peptide (peptide) Ac-DEEVLMSLVIEMGLDRIKELPQLTSYDCEVNAPIQGSRNLLQGEELLRALDQVN-NH2 :: -22.5 kcal/mol
Ac-DEEVLMSLVIEMGLDRIKELPELWLGQNEFDFMTDF-NH2 (peptide, UniProt Q99967 224-259, looked up, source: synthetic peptide (chemical synthesis, see ESI)) [CITED2 224–259, chemically synthesized peptide] :: -12.4 kcal/mol
HIF-1α 776–826, chemically synthesized peptide (peptide, UniProt Q16665 776-826, looked up, cysteine pairing not given here, source: synthetic peptide (chemical synthesis, see ESI)) peptide: Ac-SDLACRLLGQSMDESGLPQLTSYDCEVNAPIQGSRNLLQGEELLRALDQVN-NH2 :: -22.9 kcal/mol
Ac-SMDESGLPQLTSYDCEVNAPIQGSRNLLQGEELLRALDQVN-NH2 (peptide, UniProt Q16665 786-826, looked up, source: synthetic peptide (chemical synthesis, see ESI)) [HIF-1α 786–826, chemically synthesized peptide] :: -25.8 kcal/mol

Turning now to a further binder:
The measured dH associated with CITED2 216–269, chemically synthesized peptide (peptide, UniProt Q99967 216-269, looked up, source: synthetic peptide (chemical synthesis, see ESI)) peptide: Ac-NVIDTDFIDEEVLMSLVIEMGLDRIKELPELWLGQNEFDFMTDFVCKQQPSRVS-NH2 reads -13.2 kcal/mol
